Target: ZIKV NS2B-NS3 protease (Zika virus)
Construct: directed at the co-expressed ZIKV NS2B-NS3 protease
Sequence (A0A024B7W1 1503-1680): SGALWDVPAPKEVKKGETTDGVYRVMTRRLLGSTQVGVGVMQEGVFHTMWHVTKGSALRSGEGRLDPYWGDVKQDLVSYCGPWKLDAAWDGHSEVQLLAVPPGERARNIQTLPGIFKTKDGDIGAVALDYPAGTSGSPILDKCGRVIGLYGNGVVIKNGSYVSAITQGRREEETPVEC
Sequence (A0A024B7W1 1425-1464): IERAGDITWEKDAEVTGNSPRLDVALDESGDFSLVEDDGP
Assay: ZIKV NS2B-NS3 protease biochemical FRET assay
Conditions: ZIKV NS2B-NS3 Ki (uM), library 1, supplement
Entries and their Ki

Worked cases, Ki given:
COMPOUND_STRING	Ki
CN(C(=O)c1cc(Cl)cc(NC(=O)OCc2ccccc2)c1)c1ccc(CN)cc1	> 89.3 µM
O=C(Nc1cc(Cl)cc(C(=O)Nc2cccc(CC3CCNCC3)c2)c1)OCc1ccccc1	> 89.3 µM
NCc1ccc(NC(=O)c2cc(Cl)cc(NC(=O)OCc3ccccc3)c2)cc1	9.23 µM
O=C(Nc1cc(Cl)cc(C(=O)Nc2nccn2C2CNC2)c1)OCc1ccccc1	> 89.3 µM

// map `NC[C@]1(F)C[C@@H](NC(=O)c2cc(Cl)cc(NC(=O)OCc3ccccc3)c2)C1` to recorded Ki (system: ZIKV NS2B-NS3 protease (Zika virus))
61.6 µM

// map `O=C(Nc1cc(Cl)cc(C(=O)Nc2cc3n(n2)CCNC3)c1)OCc1ccccc1` to recorded Ki (system: ZIKV NS2B-NS3 protease (Zika virus))
> 89.3 µM

// map `NC1(c2cccc(NC(=O)c3cc(Cl)cc(NC(=O)OCc4ccccc4)c3)c2)CCC1` to recorded Ki (system: ZIKV NS2B-NS3 protease (Zika virus))
> 89.3 µM

// map `NCCCc1ccnc(NC(=O)c2cc(Cl)cc(NC(=O)OCc3ccccc3)c2)c1` to recorded Ki (system: ZIKV NS2B-NS3 protease (Zika virus))
16.5 µM

###

Experiment: Murine in vivo pharmacokinetics and tolerability
Design: species or system mice
Conditions: mouse, in vivo; read-out: CLp
PROPERTY_LABEL: clearance
Your reply should be a number followed by the unit it is expressed in.

Would you mind telling me what clearance value was observed for Cc1cc([C@H](Nc2ccc3c(c2)CNC3)C(=O)NCC(F)F)cc(C(F)(F)F)c1 [ASAP-0036543] ?
87 mL/min/kg

###

Molecular target: ZIKV NS2B-NS3 protease (Zika virus)
Construct: directed at the co-expressed ZIKV NS2B-NS3 protease
Assay: ZIKV NS2B-NS3 protease biochemical FRET assay
Settings: ZIKV NS2B-NS3 Ki (uM), library 1, supplement
Entries and their log10 Ki
Response schema: value (number) is log10 of Ki in units of µM.

Worked cases, log10 Ki given:
COMPOUND_STRING	EXPERIMENTAL_TARGET	log10 Ki
Cc1cc(CN)cc(NC(=O)c2cc(Cl)cc(NC(=O)OCc3ccccc3)c2)c1	ZIKV NS2B-NS3 protease (Zika virus)	0.67
Cn1nc2c(c1NC(=O)c1cc(Cl)cc(NC(=O)OCc3ccccc3)c1)CNCC2	ZIKV NS2B-NS3 protease (Zika virus)	1.29
NCc1ccc(O)c(NC(=O)c2cc(Cl)cc(NC(=O)OCc3ccccc3)c2)c1	ZIKV NS2B-NS3 protease (Zika virus)	1.21
O=C(Nc1cc(Cl)cc(C(=O)Nc2ccnc(OC3CNC3)c2)c1)OCc1ccccc1	ZIKV NS2B-NS3 protease (Zika virus)	1.77
NCCc1cccc(NC(=O)c2cc(Cl)cc(NC(=O)OCc3ccccc3)c2)c1	ZIKV NS2B-NS3 protease (Zika virus)	0.55
NCC1CCN(C(=O)c2cc(Cl)cc(NC(=O)OCc3ccccc3)c2)CC1	ZIKV NS2B-NS3 protease (Zika virus)	1.94

Would you mind telling me what log10 Ki value was observed for `O=C(Nc1cc(Cl)cc(C(=O)Nc2nc3c(s2)CNC3)c1)OCc1ccccc1` ?
1.89

Would you mind telling me what log10 Ki value was observed for `NCCc1ccc(NC(=O)c2cc(Cl)cc(NC(=O)OCc3ccccc3)c2)cc1` ?
0.98

meta.source: paper doi:10.1101/2025.06.19.660642
